# Test system: PC3
# test: MTT antiproliferation assay
# Type: cell-based, human
# conditionsUsed: Homo sapiens, PC-3; PC3, MTT, 24 h, mean ± SEM
pIC50: −log10 of the molar value.
pIC50 by entry:

# compound, pIC50
data = [
    ("CC1=C(/C=C/C(C)=C/C=C/C(C)=C/C(=O)O)C(C)(C)CCC1 [ATRA, All-trans retinoic acid, reference compound]", "< 4.00"),
    ("CC1(C)CCC(C)(C)c2cc(C#Cc3ccc(C(=O)O)cc3)ccc21", "< 4.00"),
]

# evaluate next
# input Using the record for CC1(C)CCC(C)(C)c2cc(C#Cc3cccc(C(=O)O)c3)ccc21 , report its pIC50.
# output < 4.00

====

# Tested on: HepG2
# test: MTT antiproliferation assay
# Type: cell-based, human
# conditionsUsed: Homo sapiens; HepG2, MTT, 24 h, mean ± SEM
parameterMeasured: pIC50
Give only the number. pIC50 is defined as minus log10 of concentration in molar units.

Before answering, review these 2 worked examples.
# compound, assayTarget, readoutValue
measured = [
    ("CC1(C)CCC(C)(C)c2cc(C#Cc3ccc(C(=O)O)cc3)ccc21", "HepG2", 6.13),
    ("CC1(C)CCC(C)(C)c2cc(C#Cc3cccc(C(=O)O)c3)ccc21", "HepG2", 4.37),
]

# evaluate next
# input API: value(readout=pIC50, system=HepG2) for record CC1=C(/C=C/C(C)=C/C=C/C(C)=C/C(=O)O)C(C)(C)CCC1 [ATRA, All-trans retinoic acid, reference compound]
# output 4.44

====

IC50 by entry:
# System: Huh7
# test: MTT antiproliferation assay
# Assay type: cell-based, human
# conditionsUsed: Homo sapiens, Huh-7; Huh7, MTT, 24 h, mean ± SEM

Before answering, review these 2 worked examples.
# compound, parameterMeasured, readoutValue
rows = [
    ("CC1=C(/C=C/C(C)=C/C=C/C(C)=C/C(=O)O)C(C)(C)CCC1 [ATRA, All-trans retinoic acid, reference compound]", "IC50", "> 100 µM"),
    ("CC1(C)CCC(C)(C)c2cc(C#Cc3ccc(C(=O)O)cc3)ccc21", "IC50", "> 100 µM"),
]

# input Using the record for CC1(C)CCC(C)(C)c2cc(C#Cc3cccc(C(=O)O)c3)ccc21 , report its IC50.
# output > 100 µM
